system.tested: plasma kallikrein (PK) (UniProt P03952 20-390; P03952 391-638)
Sequence (P03952 20-390, chain 1 of 2): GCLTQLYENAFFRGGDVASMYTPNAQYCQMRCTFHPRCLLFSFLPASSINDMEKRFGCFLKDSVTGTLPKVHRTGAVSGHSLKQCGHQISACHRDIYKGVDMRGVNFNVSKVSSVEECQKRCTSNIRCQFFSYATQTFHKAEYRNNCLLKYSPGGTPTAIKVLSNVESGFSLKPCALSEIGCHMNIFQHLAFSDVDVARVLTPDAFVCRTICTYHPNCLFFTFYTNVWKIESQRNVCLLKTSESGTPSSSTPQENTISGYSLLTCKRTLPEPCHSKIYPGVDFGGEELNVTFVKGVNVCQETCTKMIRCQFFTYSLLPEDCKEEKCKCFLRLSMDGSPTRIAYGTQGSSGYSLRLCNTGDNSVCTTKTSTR
Sequence (P03952 391-638, chain 2 of 2): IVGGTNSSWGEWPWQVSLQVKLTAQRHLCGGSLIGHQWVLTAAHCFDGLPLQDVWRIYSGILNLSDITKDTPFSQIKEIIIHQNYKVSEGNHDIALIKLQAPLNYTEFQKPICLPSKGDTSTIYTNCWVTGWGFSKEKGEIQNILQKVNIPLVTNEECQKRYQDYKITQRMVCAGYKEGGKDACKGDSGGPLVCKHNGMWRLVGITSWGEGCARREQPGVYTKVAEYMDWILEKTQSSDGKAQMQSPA
test.details: SPR
pKd: −log10 of the molar value.

binder: LSEEPE [oligopeptide LE6 (Leu-Ser-Glu-Glu-Pro-Glu)]
pKd: 5.10
